target.system: Metabotropic glutamate receptor 8 (Rattus norvegicus) (UniProt P70579)
Sequence (P70579 whole entry, looked up): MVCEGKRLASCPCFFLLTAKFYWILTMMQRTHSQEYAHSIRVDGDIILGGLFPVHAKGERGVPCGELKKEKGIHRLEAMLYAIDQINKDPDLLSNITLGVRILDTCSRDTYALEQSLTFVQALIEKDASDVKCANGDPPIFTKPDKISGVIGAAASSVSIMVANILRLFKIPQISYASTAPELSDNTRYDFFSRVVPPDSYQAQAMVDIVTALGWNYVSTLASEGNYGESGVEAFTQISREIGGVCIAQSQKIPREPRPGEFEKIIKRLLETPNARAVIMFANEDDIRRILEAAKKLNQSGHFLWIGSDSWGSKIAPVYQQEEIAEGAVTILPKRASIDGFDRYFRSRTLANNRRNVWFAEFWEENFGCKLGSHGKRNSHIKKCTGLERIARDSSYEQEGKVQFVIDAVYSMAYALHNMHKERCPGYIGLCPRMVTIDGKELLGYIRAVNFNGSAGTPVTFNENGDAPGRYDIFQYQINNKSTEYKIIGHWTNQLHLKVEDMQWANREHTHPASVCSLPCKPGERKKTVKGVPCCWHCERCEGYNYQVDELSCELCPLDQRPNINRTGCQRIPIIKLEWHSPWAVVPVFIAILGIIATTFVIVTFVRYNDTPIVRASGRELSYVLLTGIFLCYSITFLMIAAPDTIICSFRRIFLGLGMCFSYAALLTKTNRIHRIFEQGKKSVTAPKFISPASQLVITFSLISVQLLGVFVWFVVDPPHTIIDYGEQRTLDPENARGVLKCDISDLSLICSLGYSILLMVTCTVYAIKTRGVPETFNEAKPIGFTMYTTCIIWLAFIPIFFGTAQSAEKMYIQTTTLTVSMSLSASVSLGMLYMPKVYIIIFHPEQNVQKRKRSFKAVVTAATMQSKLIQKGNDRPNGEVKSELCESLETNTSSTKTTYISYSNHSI
experiment.description: mGluR8 Gi/Go-coupled signaling modulation – cell-based, rat, thallium flux, HTS, primary screen (AID 488969)
settings: HEK293 rat mGluR8, GIRK thallium flux, FluoZin2; at 10 µM; stronger effect = higher value; submaximal glutamate (EC20) added with thallium
Over roughly 110,000 compounds, “z-score” has its median near -0.1; the highest 2% begin near 2. Shown is part of a subset that was picked to be rich in the highest values.
# binarize z-score: threshold 0.7 inclusive, high side 1.0, low side 0.0

INSERT INTO measurements (molecule, class) VALUES
  ('CSc1cccc(NC(=O)CN(c2ccccc2)S(=O)(=O)N(C)C)c1', 1.0);

q: Given the entry Cn1c(=O)c2c(nc3sccn32)n(C)c1=O , answer whether its z-score meets or surpasses 0.7.
a: 1.0

q: Given the entry CC(OC(=O)CN(C)S(=O)(=O)c1ccc(Cl)cc1)C(=O)Nc1ncc(Cl)cc1Cl (stereo unspecified) , answer whether its z-score meets or surpasses 0.7.
a: 0.0

q: Given the entry Cc1ccccc1C(=O)NC(=S)Nc1sc2c(c1C#N)CCCC2 , answer whether its z-score meets or surpasses 0.7.
a: 1.0

q: Given the entry CSc1cccc(NC(=O)CN(c2ccc(C)cc2C)S(C)(=O)=O)c1 , answer whether its z-score meets or surpasses 0.7.
a: 1.0

q: Given the entry CCCCNC(=O)c1ccccc1NC(=O)CN(c1ccccc1)S(=O)(=O)N(C)C , answer whether its z-score meets or surpasses 0.7.
a: 1.0

q: Given the entry Cc1nc2sccn2c(=O)c1Cl , answer whether its z-score meets or surpasses 0.7.
a: 0.0

q: Given the entry O=C(NCCC1=CCCCC1)C1CCCN(S(=O)(=O)c2cccnc2)C1 (stereo unspecified) , answer whether its z-score meets or surpasses 0.7.
a: 1.0

q: Given the entry CN(C)S(=O)(=O)N(CC(=O)Nc1cccc(F)c1)c1ccccc1 , answer whether its z-score meets or surpasses 0.7.
a: 0.0

q: Given the entry CN(C)S(=O)(=O)N(CC(=O)Nc1ccccc1F)c1ccccc1 , answer whether its z-score meets or surpasses 0.7.
a: 0.0

q: Given the entry CSc1cccc(NC(=O)CN(c2cccc(C)c2)S(C)(=O)=O)c1 , answer whether its z-score meets or surpasses 0.7.
a: 0.0

###

target.system: Metabotropic glutamate receptor 8 (Rattus norvegicus)
experiment.description: mGluR8 Gi/Go-coupled signaling modulation – cell-based, rat, thallium flux, HTS, primary screen (AID 488969)
settings: HEK293 rat mGluR8, GIRK thallium flux, FluoZin2; at 10 µM; stronger effect = higher value; submaximal glutamate (EC20) added with thallium
Whole data set: some 110,000 compounds, median “z-score” near -0.1, cut for the highest 2% near 2. The list comes from a sample in which the highest values are over-represented; it also holds close analogues and randomly drawn compounds.
measured.metric: z-score
// no unit, no text: just the number

INSERT INTO measurements (compound, recorded_value) VALUES
  ('Cc1ccc(OCC(=O)N2CCc3ccccc32)cc1', -0.113);

Field z-score (system: Metabotropic glutamate receptor 8 (Rattus norvegicus)) for entry CCNC(=O)COc1ccc(Br)cc1Cl = 0.307

Field z-score (system: Metabotropic glutamate receptor 8 (Rattus norvegicus)) for entry O=C(COc1ccccc1Cl)NC(=O)NC1CCCC1 = 0.502

Field z-score (system: Metabotropic glutamate receptor 8 (Rattus norvegicus)) for entry O=C(COc1ccc(Br)cc1Cl)NC(=O)NCc1ccccc1 = 0.301

Field z-score (system: Metabotropic glutamate receptor 8 (Rattus norvegicus)) for entry O=C(COc1ccc(F)cc1Br)N1CCc2ccccc21 = -0.0164

Field z-score (system: Metabotropic glutamate receptor 8 (Rattus norvegicus)) for entry O=C(COc1ccccc1Cl)NC(=S)N1CCc2ccccc21 = 12.1

Field z-score (system: Metabotropic glutamate receptor 8 (Rattus norvegicus)) for entry CCC(=O)N1CCN(c2ccccc2NC(=O)COc2ccccc2Cl)CC1 = -1.24

Field z-score (system: Metabotropic glutamate receptor 8 (Rattus norvegicus)) for entry O=C(COc1ccccc1)N1CCc2ccccc21 = -0.0743

###

target.system: Metabotropic glutamate receptor 8 (Rattus norvegicus) (UniProt P70579)
experiment.description: mGluR8 Gi/Go-coupled signaling modulation – cell-based, rat, thallium flux, HTS, primary screen (AID 488969)
settings: HEK293 rat mGluR8, GIRK thallium flux, FluoZin2; at 10 µM; stronger effect = higher value; submaximal glutamate (EC20) added with thallium
The full ranking holds about 110,000 compounds; the median of “z-score” is about -0.1, and the highest 2% start at about 2. What follows is part of a selection rich in the highest values, with near analogues and random picks from the rest.
measured.metric: z-score
// no unit, no text: just the number

INSERT INTO measurements (compound, recorded_value) VALUES
  ('CCOc1ccccc1OCCCC(=O)Nc1sccc1C(N)=O', 0.813),
  ('Cc1sc2ncnc(SCC(=O)NCC(C)C)c2c1C', -0.208),
  ('CCOC(=O)COc1cc(Br)c(/C=N/Nc2ccccc2)cc1OC', -0.0959),
  ('CC(=O)Nc1c(OC(C)=O)ccc2c(C)cc(=O)oc12', -0.24),
  ('Cc1ccc(OCC(=O)NNC(=O)C(C)Sc2ncnc3sc(C)c(C)c23)cc1 (stereo unspecified)', 7.7);

Looking up CCOC(=O)C(NC(=O)CC)(N1CCc2ccccc2C1)C(F)(F)F (stereo unspecified) , I see its z-score listed as -0.138

###

target.system: Metabotropic glutamate receptor 8 (Rattus norvegicus) (UniProt P70579)
experiment.description: mGluR8 Gi/Go-coupled signaling modulation – cell-based, rat, thallium flux, HTS, primary screen (AID 488969)
settings: HEK293 rat mGluR8, GIRK thallium flux, FluoZin2; at 10 µM; stronger effect = higher value; submaximal glutamate (EC20) added with thallium
In all, about 110,000 compounds were measured (“z-score”: median about -0.1, highest 2% from about 2 on). Shown is part of a subset that was picked to be rich in the highest values.
measured.metric: z-score
// no unit, no text: just the number

Sample answers from the record:
INSERT INTO assay_data (compound, target_system, recorded_value) VALUES
  ('CCN1CCCC1CNC(=O)CSCc1nc(-c2ccccc2C)oc1C (stereo not given)', 'Metabotropic glutamate receptor 8 (Rattus norvegicus) (UniProt P70579)', 4.01),
  ('Cc1ccccc1-c1nc(CN2CCC(C(=O)NCCC3=CCCCC3)CC2)c(C)o1', 'Metabotropic glutamate receptor 8 (Rattus norvegicus) (UniProt P70579)', 1.63),
  ('Cc1ccccc1-c1nc(CN2CCC(C(=O)NCCCN3CCCC3)CC2)c(C)o1', 'Metabotropic glutamate receptor 8 (Rattus norvegicus) (UniProt P70579)', 2.76),
  ('Cc1ccccc1-c1nc(CN2CCCC(C(=O)NCCCN3CCOCC3)C2)c(C)o1 (stereo not given)', 'Metabotropic glutamate receptor 8 (Rattus norvegicus) (UniProt P70579)', -0.359);

// next entry
Looking up Cc1ccccc1-c1nc(CN2CCC(C(=O)NCCCN3CC(C)CC(C)C3)CC2)c(C)o1 (stereo not given) , I see its z-score listed as 2.43

###

target.system: Metabotropic glutamate receptor 8 (Rattus norvegicus) (UniProt P70579)
experiment.description: mGluR8 Gi/Go-coupled signaling modulation – cell-based, rat, thallium flux, HTS, primary screen (AID 488969)
settings: HEK293 rat mGluR8, GIRK (G protein-gated inwardly rectifying potassium channel) thallium flux, FluoZin2; at 10 µM; stronger effect = higher value; submaximal glutamate (EC20) added with thallium
In all, about 110,000 compounds were measured (“z-score”: median about -0.1, highest 2% from about 2 on). Many of the other results were omitted from the sample, so the highest values are more common in it than they were.
# binarize z-score: threshold -0.04 inclusive, high side Fulfilled, low side Not fulfilled

Worked examples, 10 molecules total:
INSERT INTO results (molecule, class) VALUES
  ('C/C(=N\NC(=O)C(NC(=O)c1ccccc1)C(C)C)c1ccccc1 (stereo unspecified)', 'Not fulfilled'),
  ('CCOC(=O)c1c(C)[nH]c(C(=O)COC(=O)c2ccccc2NC(=O)c2ccco2)c1C', 'Fulfilled'),
  ('CSc1ccc(/C=N/NC(=O)c2sccc2C)cc1', 'Not fulfilled'),
  ('CC(C)NC(=O)/C(=N\O)c1ccccc1', 'Fulfilled'),
  ('O=C(CCNC(=O)Cn1ccc2ccccc2c1=O)NCCc1ccccc1Cl', 'Fulfilled'),
  ('Cc1ccsc1/C=N/NC(=O)c1cccs1', 'Fulfilled'),
  ('Cc1cc(C(=O)NCCCC(=O)O)c(C)o1', 'Not fulfilled'),
  ('CCN(CC)c1ccc(NC(=O)c2nc3nc(C)cc(C(F)F)n3n2)cc1', 'Fulfilled'),
  ('O=C1c2ccccc2C(=O)N1c1ccc(-c2nc3ccccc3o2)cc1', 'Fulfilled'),
  ('Cc1ccsc1/C=N/NC(=O)C1CC(=O)N(c2ccccc2)C1 (stereo unspecified)', 'Fulfilled');

Note: attention shifts to another entry.
q: Given the entry O=C(CSc1nnc(-c2cccc(Cl)c2)o1)Nc1ccc2c(c1)OCCO2 , answer whether its z-score meets or surpasses -0.04.
a: Fulfilled
